src = PubChem BioAssay (Tox21)

Experiment: qHTS assay to identify small molecule agonists of the estrogen receptor alpha (ER-alpha) signaling pathway in the presence of an antagonist - cell viability counter screen (AID 1259386);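 further: cells exposed to compounds for 22 h at 37 °C before the viability read; nearly all actives have a fitted effect of over 30% in size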
Conditions: VM7Luc4E2 viability, CellTiter-Fluor fluorescence, 22 h; series mostly up to 92.4 µM
Inconclusive results are not listed. Activity calls are given as the source filed them. The call rests on the fitted dose curve; in most records, active means well fitted cell-killing curve with a large enough effect in the repeat runs; inconclusive means weak or mixed curves, or effect the other way; inactive means no such curve, though single readings can be large or run the other way.
reportedMetric: outcome

* CCO[Si](CCC#N)(OCC)OCC | inactive
* C=CC(C)CCCC(C)(C)O (stereo not drawn) | inactive
* NCCNCCN | inactive
* CC(C)(C)c1cc(Cc2cc(C(C)(C)C)c(O)c(C(C)(C)C)c2)cc(C(C)(C)C)c1O | inactive
* C=CCCCCCCCCC(=O)O | inactive
* CCCCCCC=O | inactive
* CNC(=S)N(C)C | inactive
* CCCCCCO | inactive
* CCCOC(=O)c1ccccc1 | inactive
* CC(=O)OCc1ccco1 | inactive
* CC1(C)S[C@@H]2[C@H](NC(=O)COc3ccccc3)C(=O)N2[C@H]1C(=O)O | inactive
* CC(O)CC(C)(C)O (stereo not drawn) | inactive
* CC1(C)CC(N)CC(C)(CN)C1 (stereo not drawn) | inactive
* Brc1ccc(Br)c(Br)c1 | inactive
* CC(C)=CCl | inactive
* CCCCCCCC=O | inactive
* CCNc1cccc(C)c1 | inactive
* O=C(O)c1ccccc1C(=O)O | inactive

----------
Assay: A CellTox Green Cytotoxicity Assay to monitor cytotoxicity in HEK293 cells - 8 hour (AID 1224884); further: nearly all actives have a fitted effect of over 35% in size
Settings: CellTox Green fluorescence; series mostly up to 76.8 µM
Text: National Center for Advancing Translational Sciences [NCATS] NIH Chemical Genomics Center [NCGC] U.S. Environmental Protection Agency [EPA] National Institutes of Environmental Health Sciences [NIEHS] National Toxicology Program [NTP] Cell-based models are critical for drug discovery. […] Viable cells produce no appreciable increases in fluorescence. Therefore, the fluorescence signal produced by the binding interaction with dead cell DNA is proportional to cytotoxicity. […]
Records with an inconclusive call do not appear. Activity calls are given as the source filed them. The call rests on the fitted dose curve; in most records, active means well fitted activation curve with a large enough effect in the repeat runs; inconclusive means weak or mixed curves; inactive means flat fitted curve, though single readings scatter.
reportedMetric: outcome

• CCCCCCCO = inactive
• C=CC[N+](C)(C)CC=C = inactive
• C[Si]1(C)O[Si](C)(C)O[Si](C)(C)O[Si](C)(C)O1 = inactive
• CC(C)c1cccc(C(C)C)c1 = inactive
• OCc1ccccc1 = inactive
• COC(=O)c1cccnc1 = inactive
• COCCOC(=O)c1ccccc1C(=O)OCCOC = inactive
• CNC(=S)N(C)C = inactive
• CCOC(=O)c1ccc(N)cc1 = inactive
• O=C(O)c1ccccc1C(=O)O = inactive
• NCCCCCCN = inactive
• CCCCCC(=O)O = inactive
• CCCCCCO = inactive
• CSc1ccc(Cl)cc1 = inactive
• COC(=O)CCCC(=O)OC = inactive
• CN(C)c1ccc(O)c2c1C[C@H]1C[C@H]3[C@H](N(C)C)C(=O)C(C(N)=O)=C(O)[C@@]3(O)C(=O)C1=C2O = inactive

----------
Experiment: qHTS assay for small molecule agonists of the antioxidant response element (ARE) signaling pathway (AID 743202)
Settings: HepG2 ARE-bla reporter, beta-lactamase FRET, 16 h; series mostly up to 73.3 µM
Results filed as inconclusive are left out. Activity calls are given as the source filed them. Calls follow the shape of the dose curve; as a rule, active = well fitted activation curve with a large enough effect in the signal ratio in the repeat runs (not every such curve was filed as active); inconclusive = weak or mixed curves, or effect the other way; inactive = no such curve, though single readings can be large or run the other way; the % refers to the signal ratio.
Labels: TRUE = active, FALSE = inactive

• CC(CCO)CC(C)(C)C (centres undefined) = FALSE
• NCCNCCN = FALSE
• CNC(=O)Oc1ccc2c(c1)[C@]1(C)CCN(C)[C@@H]1N2C = FALSE
• O=S(=O)(O)c1ccc(N=Nc2c(O)ccc3cc(S(=O)(=O)O)ccc23)cc1 = FALSE
• CC(C)(Oc1ccc(CCNC(=O)c2ccc(Cl)cc2)cc1)C(=O)O = FALSE
• C=C(C)[C@H]1CC=C(C)C(=O)C1 = FALSE
• CC(C)(C#N)c1cc(Cn2cncn2)cc(C(C)(C)C#N)c1 = FALSE
• CCCCCCO = FALSE
• CC1(C)OC[C@@H]2O[C@@]3(C(=O)O)OC(C)(C)O[C@H]3[C@@H]2O1 = FALSE
• CN1C(=O)CC[C@H]1c1cccnc1 = FALSE
• C=Cc1ccc(C)cc1 = FALSE
• CC(=O)OCc1ccco1 = FALSE
• O=C1CCCC1 = FALSE
• C=C(C)CNCC = FALSE
• NCCN1CCNCC1 = FALSE
• COC(=O)c1cccnc1 = FALSE
• OCc1ccccc1 = FALSE
• C[Si]1(C)O[Si](C)(C)O[Si](C)(C)O[Si](C)(C)O1 = FALSE
• O=C(O)c1ccc(C(=O)O)c(C(=O)O)c1 = FALSE
• c1ccc(Oc2ccccc2)cc1 = FALSE
• NCCCCCCN = FALSE
• CCO[Si](CCC#N)(OCC)OCC = FALSE
• COc1ccc(N)c(C)c1 = FALSE
• CN(C)c1ccc(Cc2ccc(N(C)C)cc2)cc1 = FALSE
• O=C(O)c1cc2ccccc2cc1O = FALSE
• c1ccc2c(c1)Cc1ccccc1-2 = FALSE
• COCCOC(=O)c1ccccc1C(=O)OCCOC = FALSE
• COC(=O)CCCC(=O)OC = FALSE
• CCNc1cccc(C)c1 = FALSE
• OC1C(O)C(O)C(O)C(O)C1O (centres undefined) = FALSE
• CNC(=S)N(C)C = FALSE
• O=C1c2ccccc2CCc2ccccc21 = FALSE
• CCCOC(=O)c1ccccc1 = FALSE
• COc1ccc(OC)cc1 = FALSE
• CC(C)=CCl = FALSE
• CC1(C)S[C@@H]2[C@H](NC(=O)COc3ccccc3)C(=O)N2[C@H]1C(=O)O = FALSE
• CCCCCCCC=O = FALSE
• COc1ccc(CCC(C)=O)cc1 = FALSE
• CCc1ccccc1CC = FALSE
• CC(=O)OC1CC(C)OC(C)O1 (centres undefined) = FALSE
• CC(O)CC(C)(C)O (centres undefined) = FALSE
• C=CC(=O)OCCC(=O)O = TRUE
• CC(=O)OCc1ccccc1 = FALSE
• CC(C)(C)c1cc(Cc2cc(C(C)(C)C)c(O)c(C(C)(C)C)c2)cc(C(C)(C)C)c1O = FALSE

----------
Target: Bile acid receptor (Homo sapiens) (UniProt Q96RI1)
Sequence (Q96RI1 whole entry, looked up): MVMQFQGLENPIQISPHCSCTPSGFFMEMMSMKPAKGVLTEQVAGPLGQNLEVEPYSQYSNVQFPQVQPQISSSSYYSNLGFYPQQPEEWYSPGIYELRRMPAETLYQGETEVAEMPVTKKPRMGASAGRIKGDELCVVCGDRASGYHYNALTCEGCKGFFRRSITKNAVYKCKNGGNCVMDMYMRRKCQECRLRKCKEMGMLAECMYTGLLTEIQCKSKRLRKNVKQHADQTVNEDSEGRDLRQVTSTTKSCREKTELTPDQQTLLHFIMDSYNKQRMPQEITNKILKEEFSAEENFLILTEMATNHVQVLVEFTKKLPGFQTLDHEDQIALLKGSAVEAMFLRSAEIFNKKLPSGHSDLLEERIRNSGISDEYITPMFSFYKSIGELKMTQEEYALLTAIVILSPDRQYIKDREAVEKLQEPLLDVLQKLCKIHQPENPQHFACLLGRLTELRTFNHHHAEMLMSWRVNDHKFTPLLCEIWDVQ
Test: qHTS assay to identify small molecule agonists of the farnesoid-X-receptor (FXR) signaling pathway (AID 743220)
Conditions: HEK293T FXR-UAS-bla, beta-lactamase FRET ratio, 16 h; series mostly up to 62.6 µM
Inconclusive results are not listed. The source made the active and inactive calls. The call rests on the fitted dose curve; in most records, active means well fitted activation curve with a large enough effect in the signal ratio in the repeat runs (not every such curve was filed as active); inconclusive means weak or mixed curves, or effect the other way; inactive means flat fitted curve, though single readings scatter; the % refers to the signal ratio.
reportedMetric: outcome

- O=C1C(c2[nH]c3ccccc3c2O)=Nc2ccccc21: inactive
- Clc1ccccn1: inactive
- Nc1ccc(Cl)c(N)c1: inactive
- CCOCCOCCOCCO: inactive
- CC(C)(C#N)c1cc(Cn2cncn2)cc(C(C)(C)C#N)c1: inactive
- CC(=O)CC(C)(C)O: inactive
- CCCCC(C=O)CC (centres undefined): inactive
- O=C(O)Cn1c(=O)n(Cc2ccc(Br)cc2F)c(=O)c2ccc(Cl)cc21: inactive
- COc1ccc(CCC(C)=O)cc1: inactive
- CC(C)(C)c1cc(Cc2cc(C(C)(C)C)c(O)c(C(C)(C)C)c2)cc(C(C)(C)C)c1O: inactive
- NC(=S)NNC(N)=S: inactive
- CC(C)c1cccc(C(C)C)c1: inactive
- CNC(=O)Oc1ccc2c(c1)[C@]1(C)CCN(C)[C@@H]1N2C: inactive
- CC(C)=CCl: inactive

----------
Experiment: qHTS assay for small molecules that induce genotoxicity in human embryonic kidney cells expressing luciferase-tagged ATAD5 (AID 651632); further: nearly all actives have a fitted effect of over 15% in size
Settings: HEK293T ATAD5-luciferase induction, 16 h; series mostly up to 83.3 µM
Results filed as inconclusive are left out. Active and inactive are the calls of the source. Calls come from the whole dose curve; as a rule, active = well fitted activation curve with a large enough effect in the repeat runs; inconclusive = weak or mixed curves; inactive = no such curve, though single readings can be large or run the other way.
reportedMetric: outcome

- CCCCCCCCCCCCCCCCO: inactive
- COc1ccc([N+](=O)[O-])cc1N: inactive
- O=[N+]([O-])c1ccc2nc[nH]c2c1: inactive
- C=CCCCCCCCCC(=O)O: inactive
- CCc1ccccc1CC: inactive
- O=c1[nH]cnc2[nH]ncc12: inactive
- CCCCCCCC=O: inactive
- O=C1c2ccccc2CCc2ccccc21: inactive

----------
Molecular target: Estrogen receptor (Homo sapiens) (UniProt P03372)
Sequence (P03372 whole entry, looked up): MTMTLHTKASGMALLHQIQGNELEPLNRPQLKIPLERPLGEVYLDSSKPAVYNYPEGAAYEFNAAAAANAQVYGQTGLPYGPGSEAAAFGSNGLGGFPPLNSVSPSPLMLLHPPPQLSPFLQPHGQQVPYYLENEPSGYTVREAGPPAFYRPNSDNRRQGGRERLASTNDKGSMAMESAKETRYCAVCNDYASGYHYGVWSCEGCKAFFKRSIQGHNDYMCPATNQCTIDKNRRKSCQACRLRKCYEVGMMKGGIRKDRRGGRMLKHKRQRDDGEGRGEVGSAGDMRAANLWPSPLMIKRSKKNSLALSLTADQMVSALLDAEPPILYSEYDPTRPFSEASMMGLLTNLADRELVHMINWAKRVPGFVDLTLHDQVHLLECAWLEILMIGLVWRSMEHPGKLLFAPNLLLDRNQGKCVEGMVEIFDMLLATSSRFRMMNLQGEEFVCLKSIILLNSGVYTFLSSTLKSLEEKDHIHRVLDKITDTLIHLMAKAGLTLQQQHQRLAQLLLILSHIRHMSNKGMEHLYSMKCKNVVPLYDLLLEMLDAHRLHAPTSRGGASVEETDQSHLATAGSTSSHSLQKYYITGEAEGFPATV
Test: qHTS assay to identify small molecule agonists of the estrogen receptor alpha (ER-alpha) signaling pathway in the presence of an antagonist (AID 1259383); further: top concentration of the series differs between compounds; nearly all actives have a fitted effect of over 15% in size
Conditions: VM7Luc4E2 cells, ERE-luciferase, +ICI-182,780, 22 h; series mostly up to 92.4 µM
Calls of active or inactive are those of the source. Calls follow the shape of the full dose curve.
reportedMetric: outcome

- NCCN1CCNCC1: inactive
- COc1ccc([N+](=O)[O-])cc1N: inactive
- CCCCCC(=O)O: inactive
- CC(C)OC(=O)COc1ccc(Cl)cc1Cl: inactive
- CC(C)=CCl: inactive
- CCc1ccccc1CC: inactive
- CCCCCCCCCCCC(=O)OC: inactive
- O=C(O)Cn1c(=O)n(Cc2ccc(Br)cc2F)c(=O)c2ccc(Cl)cc21: inactive
- Cc1ccc2ncccc2c1: inactive
- CC(=O)Oc1ccc(C)cc1: inactive
- O=S(=O)(O)c1ccc(N=Nc2c(O)ccc3cc(S(=O)(=O)O)ccc23)cc1: inactive
- c1ccc2c(c1)Cc1ccccc1-2: inactive
- CC(CCO)CC(C)(C)C (configuration not stated): inactive
- C=CC(C)CCCC(C)(C)O (configuration not stated): inactive
- CC(=O)OCCOC(C)=O: inactive
- CC(C)(C)c1cc(Cc2cc(C(C)(C)C)c(O)c(C(C)(C)C)c2)cc(C(C)(C)C)c1O: inactive
- CC(C)OP(=O)(CP(=O)(OC(C)C)OC(C)C)OC(C)C: inactive
- CCO[Si](CCCN)(OCC)OCC: inactive
- CCOCC(=O)O: inactive
- O=C(O)c1cc2ccccc2cc1O: inactive
- CCCCCCCC=O: inactive
- Cc1ccc([N+](=O)[O-])cc1S(=O)(=O)O: inactive
- C=CC(=O)OCCC(=O)O: inactive
- OCc1ccccc1: inactive
- O=C(O)c1ccc(C(=O)O)c(C(=O)O)c1: inactive
- CC1(C)NC(=O)NC1=O: inactive
- CCOC(=O)n1ccn(C)c1=S: inactive
- CC(C)c1cccc(C(C)C)c1: inactive
- CCCCCCCCCCO: inactive
- O=C(O)c1ccc(S(=O)(=O)N(Cl)Cl)cc1: inactive
- CCCCCCCCCCCCCCCCO: inactive
- CC(=O)CCC=C(C)C: inactive
